Target: BKα/γ1 channels (human BK channel α- and γ1-subunits (LRRC26), HEK-293T) (Homo sapiens, UniProt Q12791)
Sequence (Q12791 whole entry): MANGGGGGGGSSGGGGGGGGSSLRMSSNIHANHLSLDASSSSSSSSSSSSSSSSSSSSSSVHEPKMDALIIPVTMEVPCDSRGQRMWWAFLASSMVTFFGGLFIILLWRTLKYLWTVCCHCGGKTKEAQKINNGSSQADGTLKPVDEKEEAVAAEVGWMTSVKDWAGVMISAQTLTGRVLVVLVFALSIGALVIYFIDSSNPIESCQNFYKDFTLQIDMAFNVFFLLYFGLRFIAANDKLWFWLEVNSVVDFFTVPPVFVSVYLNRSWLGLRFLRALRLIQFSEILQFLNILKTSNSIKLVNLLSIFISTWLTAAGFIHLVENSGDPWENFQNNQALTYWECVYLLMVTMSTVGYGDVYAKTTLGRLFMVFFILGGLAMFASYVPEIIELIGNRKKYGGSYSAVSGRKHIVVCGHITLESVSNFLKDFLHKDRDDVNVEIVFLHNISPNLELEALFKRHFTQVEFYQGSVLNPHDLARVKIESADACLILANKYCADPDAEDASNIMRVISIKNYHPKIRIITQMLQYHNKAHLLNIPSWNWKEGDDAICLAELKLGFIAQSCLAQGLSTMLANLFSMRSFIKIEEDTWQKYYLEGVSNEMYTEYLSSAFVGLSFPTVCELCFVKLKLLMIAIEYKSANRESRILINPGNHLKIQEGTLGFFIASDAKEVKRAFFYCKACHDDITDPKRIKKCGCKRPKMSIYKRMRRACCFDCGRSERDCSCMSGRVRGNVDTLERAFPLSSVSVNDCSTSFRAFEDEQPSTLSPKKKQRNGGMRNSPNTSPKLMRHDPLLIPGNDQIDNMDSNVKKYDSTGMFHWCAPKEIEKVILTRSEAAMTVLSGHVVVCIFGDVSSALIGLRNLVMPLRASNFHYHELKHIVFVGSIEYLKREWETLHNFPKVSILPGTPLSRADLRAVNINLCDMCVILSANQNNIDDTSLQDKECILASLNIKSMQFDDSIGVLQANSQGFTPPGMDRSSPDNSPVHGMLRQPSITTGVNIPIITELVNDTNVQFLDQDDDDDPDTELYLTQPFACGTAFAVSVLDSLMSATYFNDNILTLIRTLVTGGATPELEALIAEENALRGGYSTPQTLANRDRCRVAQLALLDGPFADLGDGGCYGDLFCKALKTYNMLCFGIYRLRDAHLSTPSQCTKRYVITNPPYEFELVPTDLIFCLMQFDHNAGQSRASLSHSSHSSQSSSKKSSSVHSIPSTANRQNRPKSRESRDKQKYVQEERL
Sequence (Q2I0M4 27-334 partner): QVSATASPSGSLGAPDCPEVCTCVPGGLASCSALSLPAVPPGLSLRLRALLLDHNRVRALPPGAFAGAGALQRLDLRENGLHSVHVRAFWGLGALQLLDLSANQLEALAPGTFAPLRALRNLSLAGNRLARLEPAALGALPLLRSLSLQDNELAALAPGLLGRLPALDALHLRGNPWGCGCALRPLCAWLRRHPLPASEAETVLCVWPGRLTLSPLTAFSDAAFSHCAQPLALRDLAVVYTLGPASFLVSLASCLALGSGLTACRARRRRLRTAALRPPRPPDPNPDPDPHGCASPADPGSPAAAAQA
Experiment: Macroscopic BK currents in excised inside-out patches
Format: biochemical
Conditions: IC50 (Hill fit of mean V1/2 versus [LOP]), nominally 0 Ca2+
Measurement label: pIC50
Note: pIC50 values are expressed as the negative base-10 logarithm of concentration in M.

Name the reported pIC50 value associated with the compound `CN(C)C(=O)C(CCN1CCC(O)(c2ccc(Cl)cc2)CC1)(c1ccccc1)c1ccccc1`
5.82

###

Target: BKα channels (human BK channel α-subunit, HEK-293T) (Homo sapiens)
Test: biochemical
Conditions: IC50 (Hill fit of mean V1/2 versus [LOP]), 88 µM Ca2+
Measurement label: pIC50
pIC50 here: minus log base 10 of the concentration, concentration in moles per litre.

Param readout = pIC50; param system = BKα channels (human BK channel α-subunit, HEK-293T) (Homo sapiens); param query = CN(C)C(=O)C(CCN1CCC(O)(c2ccc(Cl)cc2)CC1)(c1ccccc1)c1ccccc1 [LOP] ; response: value
6.51

Just for reference, paper PMC8352719 is where these values come from.
